B1: DCTD (parent)
chain: VKGCSMYVALFPCNECAKLIIQAG

Variants of: B1
Experiment: protein stability index of a GFP-peptide fusion (GPS, HEK-293T) (PSI 1-6); higher = more stable;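 note: lentivirally expressed fusions sorted by FACS into six bins by GFP to DsRed ratio, PSI derived from sequencing read proportions per bin multiplied by bin number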
Measurement parameters: c terminus: a fixed tail appended
Label scheme for protein stability index: lower than 3 is NOT MET, 3 and above is MET.

IN: Determine whether measured protein stability index meets or exceeds 3 for S5Y
OUT: NOT MET

IN: Answer whether protein stability index of A9F is greater than or equal to 3.
OUT: MET

IN: Could you tell me if the measured protein stability index of C4P reaches 3 or more?
OUT: NOT MET

IN: I'd appreciate it if you could say whether S5D has protein stability index at least equal to 3.
OUT: NOT MET

IN: # bool: protein stability index of A9L >= 3
OUT: MET

IN: Entry I21E : is its protein stability index no less than 3?
OUT: NOT MET

IN: Is reported protein stability index greater than or equal to 3 here: G3I
OUT: MET

IN: // inclusive: protein stability index at least 3? input: V8E
OUT: NOT MET

IN: Tell me whether protein stability index is at least 3 here: V8T
OUT: NOT MET

IN: Item C4L with protein stability index of 3 or above?
OUT: NOT MET

IN: Is protein stability index for Y7F at or above 3?
OUT: NOT MET

IN: Tell me whether protein stability index is at least 3 here: F11C
OUT: MET

IN: Given V1W , state whether its protein stability index is at least 3.
OUT: NOT MET

IN: Is the recorded value of protein stability index equal to or greater than 3 for this variant? G3Y
OUT: MET

IN: Quick check, protein stability index >= 3? V8S
OUT: NOT MET

IN: Identify whether the reported protein stability index of the following variant is 3 or greater: G3P
OUT: MET

IN: Given the entry G3D , answer whether its protein stability index meets or surpasses 3.
OUT: MET

IN: Is protein stability index for V8A at or above 3?
OUT: NOT MET

IN: Assess whether reported protein stability index for S5P sits at 3 or higher.
OUT: MET

IN: Check if protein stability index >= 3 (inclusive). Item: P12T
OUT: NOT MET

IN: Check this variant for protein stability index at or above 3: K18V
OUT: MET

IN: hey, is protein stability index for this one >= 3? V8L
OUT: NOT MET

Attribution: the supplement of paper PMC10567573
